Exercise: for every item that follows, state its recorded TGI.
System: EKVX NSCLC
TEST: NCI tumour cell line growth inhibition, 48 h

Task: Fill in the recorded TGI for this compound, with EKVX NSCLC as test system: `COc1ccc(-c2cc(-c3cc(Cl)ccc3Cl)nc3n[nH]c(N)c23)cc1`
Output: > 100 µM

Task: Could you share what TGI was measured for `COc1cc(-c2cn(S(=O)(=O)c3ccc(C)cc3)c3ccccc23)nc(-c2cn(S(=O)(=O)c3ccc(C)cc3)c3ccccc23)n1` , tested on EKVX NSCLC?
Output: > 100 µM

Task: # query: TGI | item CCOc1ccccc1NC(=O)CC1C(=O)Nc2ccccc2S1=O (stereo unspecified) | system: EKVX NSCLC
Output: > 100 µM

Task: Form field - read-out: TGI; system: EKVX NSCLC; submitted item: `O=C(OCc1ccccc1CN1CCOCC1)c1cccc(Br)c1`
Output: > 100 µM

Task: Observed TGI on EKVX NSCLC for `NC(=O)c1nnc2ccc(F)cc2c1N` , please.
Output: > 100 µM

Task: Observed TGI on EKVX NSCLC for CCS(=O)(=O)N1CCC(C(C)n2c(C)c(C(=O)NCc3c(OC)cc(C)[nH]c3=O)c3ccccc32)CC1 (stereo unspecified) , please.
Output: > 100 µM

Task: TGI of COc1ccc(/C=C2\CCCC(CN(C)C)C2=O)cc1 (stereo unspecified) on EKVX NSCLC?
Output: 24.8 µM

Task: Notebook: pull reported TGI for EKVX NSCLC, entry `C=CCn1c(=O)c2ccccc2[n+]2c(C)c(C(=O)OCC)sc12`
Output: > 100 µM

Task: Field: TGI (EKVX NSCLC). Entry: `O=C(CN1CCN(Cc2ccccc2)CC1)c1ccc2[nH]c(=O)oc2c1`
Output: > 100 µM

Task: What is its TGI for EKVX NSCLC? Entry: `NC(=O)NNCc1ccccc1`
Output: > 100 µM

Task: Any idea what TGI came out for `Cc1nc(-c2cccc(Nc3nc(-c4ccc(Cl)cc4)cs3)c2)cs1` on EKVX NSCLC?
Output: 17.2 µM

Task: Give recorded TGI with EKVX NSCLC for the following compound: `C/C(CN1C(=O)c2ccccc2C1=O)=N\NS(=O)(=O)c1ccc(C)cc1`
Output: > 100 µM

Task: What value of TGI on EKVX NSCLC does `CC1(C)N=C(N)N=C(N)N1c1cccc(CCCCc2cccc(S(=O)(=O)F)c2)c1` have?
Output: > 100 µM

Task: // fetch EKVX NSCLC TGI for `CC(C)(C)c1cc(C(=O)Nc2cc(Br)c(Br)cc2S(N)(=O)=O)cc(C(C)(C)C)c1O`
Output: 26.2 µM

Task: Lab note: need TGI with EKVX NSCLC for entry CCNC(C)Cc1ccccc1 (stereo unspecified) , please look it up.
Output: > 100 µM

Task: Tell me reported TGI for `O=C(O)c1cc2ccccc2c(N=Nc2ccccc2)c1O` , tested with EKVX NSCLC.
Output: 96.6 µM

Task: Missing value: TGI, EKVX NSCLC, entry `Fc1ccc2[nH]cc(-c3nc(-c4c[nH]c5ncccc45)cs3)c2c1` . Fill in?
Output: > 100 µM

Task: Item OC1[C@H]([C@H]2CCCC[C@@H]2O)CCC[C@@H]1[C@@H]1CCCC[C@H]1O (stereo partly specified) with EKVX NSCLC - TGI?
Output: > 100 µM

Task: Could you share what TGI was measured for `CS/C(=N\C(=S)N(C)C)N(c1ccccc1)c1nc(=[N+](C)C)ss1` , tested on EKVX NSCLC?
Output: 49.3 µM

Task: Item `Cc1ccc(S(=O)(=O)N2CCCN(S(=O)(=O)c3ccc(C)cc3)CCN(S(=O)(=O)c3ccc(C)cc3)CCCSCC2)cc1` with EKVX NSCLC - TGI?
Output: > 100 µM

Task: Given the entry `O=C1c2c(Cl)c(Cl)c(Cl)c(Cl)c2C(=O)N1CCN(c1c(Cl)ssc1=O)c1c(Cl)ssc1=O` , what TGI was observed with EKVX NSCLC?
Output: 88.6 µM

Hello, the source for this data is PubChem BioAssay (NCI), in case you need it.
